Where do these numbers come from? They come from patent US8518957B2.

Biological target: human A3AR (Homo sapiens)
Construct: expressed in transfected cells
Sequence (P0DMS8 1-318): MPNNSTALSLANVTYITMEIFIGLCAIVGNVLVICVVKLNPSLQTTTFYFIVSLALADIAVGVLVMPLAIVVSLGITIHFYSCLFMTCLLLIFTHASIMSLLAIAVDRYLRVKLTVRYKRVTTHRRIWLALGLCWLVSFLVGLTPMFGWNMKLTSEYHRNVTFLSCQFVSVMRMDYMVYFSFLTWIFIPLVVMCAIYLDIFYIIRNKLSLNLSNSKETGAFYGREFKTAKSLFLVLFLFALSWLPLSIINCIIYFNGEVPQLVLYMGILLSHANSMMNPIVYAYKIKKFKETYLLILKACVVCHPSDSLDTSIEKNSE
Test: Radioligand binding at human A3 AR ([125I]I-AB-MECA, membranes of CHO cells)
Settings: [125I]38; CHO cells; read-out: Affinity (Ki, nM), A3
Measured Ki, listed per entry.
Give a bare numeral; the unit nM is implied.

Here is how some compounds turned out for Ki.
CNC(=O)[C@@]12C[C@@H]1[C@@H](n1cnc3c(NCc4cccc(Cl)c4)nc(-c4nnn(-c5ccc(N=C=S)cc5)c4CCCCc4cn(-c5ccc(N=C=S)cc5)nn4)nc31)[C@H](O)[C@@H]2O = 8.8
C#CCCCC#Cc1nc(NCc2cccc(Cl)c2)c2ncn(C3C(O)C(O)C4(C(=O)NC)CC34)c2n1 (centres unmarked) = 23.6

State the measured Ki (human A3AR (Homo sapiens)) of "CNC(=O)[C@@]12C[C@@H]1[C@@H](n1cnc3c(NCc4cccc(Cl)c4)nc(C#CCCCCc4cn(CCCCCCNC(=O)CCCC[C@@H]5SC[C@@H]6NC(=O)N[C@@H]65)nn4)nc31)[C@H](O)[C@@H]2O"
285

State the measured Ki (human A3AR (Homo sapiens)) of "CNC(=O)[C@@]12C[C@@H]1[C@@H](n1cnc3c(NCc4cccc(Cl)c4)nc(C#CCCCCc4cn(-c5ccc(C(=O)O)cc5)nn4)nc31)[C@H](O)[C@@H]2O"
180

State the measured Ki (human A3AR (Homo sapiens)) of "CNC(=O)[C@@]12C[C@@H]1[C@@H](n1cnc3c(NCc4cccc(Cl)c4)nc(C#CCCCCc4cn(C56CC7CC(CC(C7)C5)C6)nn4)nc31)[C@H](O)[C@@H]2O"
6.5

====

target: hA2AAR (Homo sapiens); construct: expressed in transfected cells; experiment: Radioligand binding at human A2A AR ([3H]CGS21680, membranes of HEK-293 cells)
Sequence (P29274 whole entry): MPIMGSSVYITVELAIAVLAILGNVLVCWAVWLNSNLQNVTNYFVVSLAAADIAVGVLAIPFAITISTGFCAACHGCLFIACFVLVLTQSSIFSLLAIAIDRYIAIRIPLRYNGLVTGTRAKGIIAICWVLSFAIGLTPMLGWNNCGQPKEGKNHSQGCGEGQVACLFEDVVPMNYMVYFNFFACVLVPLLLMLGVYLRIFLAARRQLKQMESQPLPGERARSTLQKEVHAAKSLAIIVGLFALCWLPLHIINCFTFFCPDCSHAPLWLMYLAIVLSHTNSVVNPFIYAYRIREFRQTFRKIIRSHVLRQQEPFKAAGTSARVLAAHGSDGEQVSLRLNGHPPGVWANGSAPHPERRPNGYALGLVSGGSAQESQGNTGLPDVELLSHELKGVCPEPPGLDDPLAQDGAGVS
Measured inhibition at 10 µM, listed per entry.
Give a bare numeral; the unit % is implied.

CNC(=O)[C@@]12C[C@@H]1[C@@H](n1cnc3c(NCc4cn(-c5ccc(F)c([N+](=O)[O-])c5)nn4)nc(Cl)nc31)[C@H](O)[C@@H]2O [Compound 219a] = 19.3
CNC(=O)[C@@]12C[C@@H]1[C@@H](n1cnc3c(NCc4cccc(Cl)c4)nc(-c4nnn(-c5ccc(N=C=S)cc5)c4CCCCc4cn(-c5ccc(N=C=S)cc5)nn4)nc31)[C@H](O)[C@@H]2O = 40
C#CCCCCC#Cc1cccc(CNc2nc(Cl)nc3c2ncn3[C@H]2[C@H](O)[C@H](O)[C@@H]3C[C@@H]32)c1 = 44.1
C#CCCCCC#Cc1cccc(CNc2nc(Cl)nc3c2ncn3[C@H]2[C@H](O)[C@H](O)[C@]3(C(=O)NC)C[C@H]23)c1 = 19.7
CNC(=O)[C@@]12C[C@@H]1[C@@H](n1cnc3c(NCc4cccc(Cl)c4)nc(C#CCCCCc4cn(Cc5ccc(-n6sccc6=O)cc5)nn4)nc31)[C@H](O)[C@@H]2O = 49
CNC(=O)[C@@]12C[C@@H]1[C@@H](n1cnc3c(NCc4cccc(Cl)c4)nc(C#CCCCCc4cn(-c5ccc(C(=O)O)cc5)nn4)nc31)[C@H](O)[C@@H]2O = 40

Determine its reported inhibition at 10 µM: "CNC(=O)[C@@]12C[C@@H]1[C@@H](n1cnc3c(NCc4cn(C56CC7CC(CC(C7)C5)C6)nn4)nc(Cl)nc31)[C@H](O)[C@@H]2O"
4.9

Determine its reported inhibition at 10 µM: "CNC(=O)[C@@]12C[C@@H]1[C@@H](n1cnc3c(NCc4cccc(Cl)c4)nc(C#CCCCCc4cn(-c5ccc(N=C=S)cc5)nn4)nc31)[C@H](O)[C@@H]2O"
28
